Task for the reader: assign each of the following compounds its reported ΔA600 Cerrena.
Test system: Cerrena sp. laccase
PROTOCOL_SUMMARY: Soluble indigo bleaching at two pH values, Cerrena sp. laccase (Example 3)
Assay type: biochemical
REPORTED_CONDITIONS: pH 5, mediator 250 uM

The value of ΔA600 Cerrena measured for the compound COc1cc(C=CC(=O)O)cc(OC)c1O (stereo in doubt) turned out to be 0.240

compound COc1cc(C(N)=O)cc(OC)c1O , ΔA600 Cerrena observed: 0.142

Briefly, ΔA600 Cerrena measured for CCn1c(=NN=c2sc3cc(S(=O)(=O)O)ccc3n2CC)sc2cc(S(=O)(=O)O)ccc21 : 0.329

Note to self: ΔA600 Cerrena recorded for COC(=O)c1cc(OC)c(OC(C)=O)c(OC)c1 [AMS, methyl 4-acetyl syringate] was 0.028

###

Tested on: Thielavia sp. laccase (Ecostone LCC10)
PROTOCOL_SUMMARY: Bleaching of solubilized indigo, Thielavia sp. laccase with mediators (Example 2)
Type: biochemical
REPORTED_CONDITIONS: mediator 500 mM Concentration (head), laccase 10 ppm, pH 5, 50° C., 2 hours, n = 2
What ΔA600 (change in absorbance at 600 nm relative to control) was measured for each of the following?
Could you keep your reply to the number by itself?

Field ΔA600 (change in absorbance at 600 nm relative to control) (system: Thielavia sp. laccase (Ecostone LCC10)) for entry COc1cc(C=O)cc(OC)c1O = 0.132

Value sought: ΔA600 (change in absorbance at 600 nm relative to control), system Thielavia sp. laccase (Ecostone LCC10), item COc1cc(C(=O)O)cc(OC)c1O . Result: 0.024

Thielavia sp. laccase (Ecostone LCC10) data for O=C(O)CCCN1c2ccccc2Sc2ccccc21 ; its ΔA600 (change in absorbance at 600 nm relative to control): 0.044

Entry CCn1c(=NN=c2sc3cc(S(=O)(=O)O)ccc3n2CC)sc2cc(S(=O)(=O)O)ccc21 ; assay system Thielavia sp. laccase (Ecostone LCC10); ΔA600 (change in absorbance at 600 nm relative to control) recorded at 0.235

Result for CNC(=O)c1cc(OC)c(O)c(OC)c1 , tested on Thielavia sp. laccase (Ecostone LCC10), ΔA600 (change in absorbance at 600 nm relative to control): 0.181

Value sought: ΔA600 (change in absorbance at 600 nm relative to control), system Thielavia sp. laccase (Ecostone LCC10), item COc1cc(C(N)=O)cc(OC)c1O . Result: 0.170

###

Provide the reported ΔA600 (change in absorbance at 600 nm relative to control) of each item.
System: Thielavia sp. laccase (Ecostone LCC10)
PROTOCOL_SUMMARY: Bleaching of solubilized indigo, Thielavia sp. laccase with mediators (Example 2)
Format: biochemical
REPORTED_CONDITIONS: mediator 50 mM Concentration (head), laccase 10 ppm, pH 5, 50° C., 2 hours, n = 2
Description: An assay for the bleaching of the solubilized indigo substrate by laccase/mediator combinations was performed in a 96-well microtitre plate as follows A saturated solution of indigo in N-methylpyrrolidone (NMP) was prepared by stirring indigo (30 mg) in NMP (10 ml) at room temperature for 5 hours. The NMP solution was diluted 10-fold into an aqueous buffer solution resulting in a blue solution. For example, dilution into 50 mM sodium acetate buffer at pH 5, or 50 mM sodium phosphate buffer at pH 7. […]
Give your answer as a number; write no unit.

Summary for this compound, CNC(=O)c1cc(OC)c(O)c(OC)c1 : ΔA600 (change in absorbance at 600 nm relative to control) is 0.103

Documented ΔA600 (change in absorbance at 600 nm relative to control) of CCn1c(=NN=c2sc3cc(S(=O)(=O)O)ccc3n2CC)sc2cc(S(=O)(=O)O)ccc21 : 0.174

ΔA600 (change in absorbance at 600 nm relative to control) for COc1cc(C=O)cc(OC)c1O is 0.092

Recorded ΔA600 (change in absorbance at 600 nm relative to control) (compound COc1cc(C(=O)O)cc(OC)c1O ): 0.005

ΔA600 (change in absorbance at 600 nm relative to control) reading for COc1cc(C(N)=O)cc(OC)c1O : 0.088

Record summary for O=C(O)CCCN1c2ccccc2Sc2ccccc21 : reported ΔA600 (change in absorbance at 600 nm relative to control) = 0.132

###

Consider the following compounds; for each one, report its ΔA600 Myceliophtora.
System: Myceliophtora laccase (Denilite II)
PROTOCOL_SUMMARY: Soluble indigo bleaching at two pH values, Myceliophtora laccase (Example 3)
Format: biochemical
REPORTED_CONDITIONS: pH 7, mediator 250 uM
// keep it numeric: no unit symbol after the value

The reported ΔA600 Myceliophtora of the compound CCn1c(=NN=c2sc3cc(S(=O)(=O)O)ccc3n2CC)sc2cc(S(=O)(=O)O)ccc21 was 0.155

Please fill in: ΔA600 Myceliophtora reported for COc1cc(C=CC(=O)O)cc(OC)c1O (stereo in doubt) = 0.204

// COC(=O)c1cc(OC)c(OC(C)=O)c(OC)c1 [AMS, methyl 4-acetyl syringate] : ΔA600 Myceliophtora value = 0.078

The reported value for COc1cc(C(N)=O)cc(OC)c1O in terms of ΔA600 Myceliophtora is 0.220

###

Tested on: Thielavia laccase (Ecostone LCC10)
PROTOCOL_SUMMARY: Soluble indigo bleaching at two pH values, Thielavia laccase (Example 3)
Type: biochemical
REPORTED_CONDITIONS: pH 7, mediator 250 uM
Kindly state ΔA600 Thielavia for each of the entries shown.
Write no unit; give the number alone.

Consider COC(=O)c1cc(OC)c(OC(C)=O)c(OC)c1 [AMS, methyl 4-acetyl syringate] . Its measured ΔA600 Thielavia is 0.087

In plain terms, COc1cc(C=CC(=O)O)cc(OC)c1O (stereo in doubt) has a documented ΔA600 Thielavia of 0.112

// ΔA600 Thielavia value for COc1cc(C(N)=O)cc(OC)c1O : 0.162

The value of ΔA600 Thielavia measured for the compound CCn1c(=NN=c2sc3cc(S(=O)(=O)O)ccc3n2CC)sc2cc(S(=O)(=O)O)ccc21 turned out to be 0.145

###

System: Myceliophtora laccase (Denilite II)
PROTOCOL_SUMMARY: Soluble indigo bleaching at two pH values, Myceliophtora laccase (Example 3)
Format: biochemical
REPORTED_CONDITIONS: pH 5, mediator 250 uM
I'd appreciate it if you could supply ΔA600 Myceliophtora values for the items below.
Response field accepts a number only; no unit should be typed.

Entry COC(=O)c1cc(OC)c(OC(C)=O)c(OC)c1 [AMS, methyl 4-acetyl syringate] ; ΔA600 Myceliophtora = 0.117

Entry CCn1c(=NN=c2sc3cc(S(=O)(=O)O)ccc3n2CC)sc2cc(S(=O)(=O)O)ccc21 [ABTS] — recorded ΔA600 Myceliophtora = 0.267

Short answer for COc1cc(C=CC(=O)O)cc(OC)c1O (stereo in doubt) [Sinapinic acid, sinapinic acid] : ΔA600 Myceliophtora was 0.157

Query COc1cc(C(N)=O)cc(OC)c1O [SA, 4-carboxamido-2,6-dimethoxyphenol] yields ΔA600 Myceliophtora of 0.254

###

Kindly state ΔA600 Cerrena for each of the entries shown.
Test system: Cerrena sp. laccase
PROTOCOL_SUMMARY: Soluble indigo bleaching at two pH values, Cerrena sp. laccase (Example 3)
Assay type: biochemical
REPORTED_CONDITIONS: pH 7, mediator 250 uM
# respond with the number and nothing more

Quick note, ΔA600 Cerrena for COC(=O)c1cc(OC)c(OC(C)=O)c(OC)c1 [AMS, methyl 4-acetyl syringate] landed at 0.077

Sure, the documented ΔA600 Cerrena for COc1cc(C(N)=O)cc(OC)c1O [SA, 4-carboxamido-2,6-dimethoxyphenol] is 0.128

For this molecule ( COc1cc(C=CC(=O)O)cc(OC)c1O (stereo in doubt) [Sinapinic acid, sinapinic acid] ), measured ΔA600 Cerrena is 0.257

Consider CCn1c(=NN=c2sc3cc(S(=O)(=O)O)ccc3n2CC)sc2cc(S(=O)(=O)O)ccc21 [ABTS] . Its measured ΔA600 Cerrena is 0.215

###

Tested on: Thielavia laccase (Ecostone LCC10)
PROTOCOL_SUMMARY: Soluble indigo bleaching at two pH values, Thielavia laccase (Example 3)
Assay type: biochemical
REPORTED_CONDITIONS: pH 5, mediator 250 uM
Protocol: A saturated solution of indigo in N-methylpyrrolidone (NMP) was prepared by stirring indigo (30 mg) in NMP (10 ml) at room temperature for 5 hours. The NMP solution was diluted 10-fold into an aqueous buffer solution resulting in a blue solution. For example, dilution into 50 mM sodium acetate buffer at pH 5, or 50 mM sodium phosphate buffer at pH 7. Solutions were shaken well immediately before use. […]
Task for the reader: assign each of the following molecules its reported ΔA600 Thielavia.
Just the number, please, no unit attached.

response.value for CCn1c(=NN=c2sc3cc(S(=O)(=O)O)ccc3n2CC)sc2cc(S(=O)(=O)O)ccc21 [ABTS] (field: ΔA600 Thielavia) = 0.234

// ΔA600 Thielavia lookup, molecule = COc1cc(C=CC(=O)O)cc(OC)c1O (stereo in doubt) [Sinapinic acid, sinapinic acid] , result: 0.068

The reported value for COC(=O)c1cc(OC)c(OC(C)=O)c(OC)c1 [AMS, methyl 4-acetyl syringate] in terms of ΔA600 Thielavia is 0.100

Record summary for COc1cc(C(N)=O)cc(OC)c1O [SA, 4-carboxamido-2,6-dimethoxyphenol] : reported ΔA600 Thielavia = 0.170
